Tested on: Salmonella enteritidies IID 604
Assay: Antibacterial spectrum (Minimum Inhibitory Concentration)
Type: cell-based
Settings: IID604; Salmonella enteritidies IID 604, Gram -; read-out: Minimum Inhibitory Concentration
Where a name gives a salt, the structure may show the parent alone.
READOUT_LABEL: MIC
Quick note: number first, unit second.

Below, each entry is followed by its recorded MIC result.
| COMPOUND | VALUE_MEASURED |
| --- | --- |
| CCn1cc(C(=O)O)c(=O)c2cnc(N3CCNCC3)nc21 [Pipemidic acid, reference compound] | 12.5 µg/mL |
| CCn1cc(C(=O)O)c(=O)c2cc(F)c(N3CCN(C4OC(=O)c5ccccc54)CC3)cc21 (centres unmarked) [Example 28] | 0.1 µg/mL |
| CCn1cc(C(=O)O)c(=O)c2cc(F)c(N3CCN(Cc4ccc(N)cc4)CC3)cc21.Cl [Example 7] | 3.13 µg/mL |

Problem: Give the measured MIC of CCn1cc(C(=O)O)c(=O)c2cc(Br)c(N3CCN(C)CC3)cc21 [Example 23] .
Result: 3.13 µg/mL

Problem: Follow-up entry: C=Cn1cc(C(=O)O)c(=O)c2cc(F)c(N3CCN(C)CC3)cc21.Cl [Example 4]
Result: 0.78 µg/mL

Problem: Follow-up entry: CN1CCN(c2cc3c(cc2F)c(=O)c(C(=O)O)cn3CCF)CC1 [Example 6]
Result: 0.78 µg/mL

Problem: Follow-up entry: CCn1cc(C(=O)O)c(=O)c2cc(Br)c(N3CCNCC3)cc21 [Example 22, hydrochloride]
Result: 1.56 µg/mL

Problem: Follow-up entry: CCn1cc(C(=O)O)c(=O)c2cc(F)c(N3CCNC(=O)C3)cc21 [Example 8]
Result: 12.5 µg/mL
